The measured values listed here are drawn from patent US7521478B2.

# Tested on: IGROV
# assay explanation: Inhibition of cell growth by colorimetric SRB assay, IGROV
# Format: cell-based
# run parameters: Homo sapiens, 48 hours exposure
measure name: GI50 (µM)

>  <molecule>
C/C=C\[C@H](C)[C@H]1OC1(C)[C@@H](O[Si](C)(C)C(C)(C)C)[C@@H](COC(C)=O)C(=O)[C@H](CO)[C@H](O)CC(=O)CC (some centres unmarked)

>  <assay system>
IGROV

>  <measure name>
GI50

>  <result units>
µM

>  <readout value>
4.94

$$$$
>  <molecule>
C/C=C\[C@H](C)[C@H]1OC1(C)[C@@H](O)[C@@H](CO)C(=O)[C@H](CO)[C@H](O)CC(=O)CC (some centres unmarked)

>  <assay system>
IGROV

>  <measure name>
GI50

>  <result units>
µM

>  <readout value>
5.96

$$$$
>  <molecule>
C=C(C(=O)[C@H](COC(C)=O)[C@H](O)C1(C)O[C@@H]1[C@@H](C)/C=C\C)[C@@H](O)CC(=O)CC (some centres unmarked)

>  <assay system>
IGROV

>  <measure name>
GI50

>  <result units>
µM

>  <readout value>
1.63

$$$$
>  <molecule>
C/C=C\[C@H](C)[C@H]1OC1(C)[C@@H](O[Si](C)(C)C(C)(C)C)[C@@H](CO[Si](C)(C)C(C)(C)C)C(=O)[C@H](CO[Si](C)(C)C(C)(C)C)[C@@H](CC(=O)CC)O[Si](C)(C)C(C)(C)C (some centres unmarked) [Compound 19b]

>  <assay system>
IGROV

>  <measure name>
GI50

>  <result units>
µM

>  <readout value>
12

$$$$
>  <molecule>
C/C=C\[C@H](C)[C@H]1OC1(C)[C@@H](O[Si](C)(C)C(C)(C)C)[C@@H](COC(C)=O)C(=O)[C@H](COC(C)=O)[C@@H](CC(=O)CC)OC(C)=O (some centres unmarked)

>  <assay system>
IGROV

>  <measure name>
GI50

>  <result units>
µM

>  <readout value>
16.3

$$$$

* * *

# Tested on: PANC-1
# assay explanation: Inhibition of cell growth by colorimetric SRB assay, PANC-1
# Assay type: cell-based
# run parameters: Homo sapiens; PANC-1; 48 hours exposure; cell killing; read-out: LC50 (the source's name)
measure name: CC50

>  <compound>
C/C=C\[C@H](C)[C@H]1OC1(C)[C@@H](O[Si](C)(C)C(C)(C)C)[C@@H](COC(C)=O)C(=O)[C@H](COC(C)=O)[C@@H](CC(=O)CC)OC(C)=O (stereo partly drawn) [Compound 45]

>  <assay system>
PANC-1

>  <readout value>
16.3 µM

$$$$
>  <compound>
C/C=C\[C@H](C)[C@H]1O[C@@]1(C)[C@@H](O)[C@@H](CO)C(=O)[C@@H](CO)[C@@H](O)CC(=O)CC [3c + 4c]

>  <assay system>
PANC-1

>  <readout value>
26.8 µM

$$$$
>  <compound>
C/C=C\[C@H](C)[C@H]1OC1(C)[C@@H](O[Si](C)(C)C(C)(C)C)[C@@H](CO[Si](C)(C)C(C)(C)C)C(=O)[C@@H](CO[Si](C)(C)C(C)(C)C)[C@H](CC(=O)CC)O[Si](C)(C)C(C)(C)C (stereo partly drawn) [Compound 30a]

>  <assay system>
PANC-1

>  <readout value>
12.1 µM

$$$$
